All figures here come from patent US20240398773A1.

experiment: Study CL-001 single-dose escalation in healthy subjects, plasma PK
Type: in vivo, human
run_conditions: both sexes, human, plasma, po, 320 mg, Cohort 7, single oral 320 mg, Fasted; mean
measurement_kind: Cmax (ng/mL)
State just the number; it will be interpreted in ng/mL.

Ask | Could you share which Cmax value was measured for "O[C@@](Cn1cnnn1)(c1ccc(F)cc1F)C(F)(F)c1ccc(-c2ccc(OCC(F)(F)F)cc2)cn1" ?
Reply | 338

====

experiment: Study CL-004 plasma PK
Assay type: in vivo, human
run_conditions: human, plasma; 600 mg dose; read-out: median Tmax
measurement_kind: Tmax (h)
State just the number; it will be interpreted in h.

Ask | Could you share which Tmax value was measured for "O[C@@](Cn1cnnn1)(c1ccc(F)cc1F)C(F)(F)c1ccc(-c2ccc(OCC(F)(F)F)cc2)cn1" ?
Reply | 5.5
